B1: POU domain, class 4, transcription factor 1, residues 266 to 347; numbered along this chain, Q01851 (parent)
chain: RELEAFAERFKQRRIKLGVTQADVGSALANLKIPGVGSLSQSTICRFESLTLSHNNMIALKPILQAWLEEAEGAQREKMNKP

Variants of: B1
Assay: abundance fitness (aPCA) (normalised: wild type 0, dead -1); higher = more abundant; growth selection in yeast, the domain comes from the species named
Settings: Homo sapiens
We begin with a simple list: items and their reported abundance fitness.
The answer should be a number; do not append a unit.

Consider the worked cases shown below.
RELEAFAERFKQRRIKLGVTQADVGSALANLKIPGVGSLSQSTICRFESLTLSHNNMIALKPILQAWLEEAERAQREKMNKP [G73R] :: -0.054
RELEAFAERFMQRRIKLGVTQADVGSALANLKIPGVGSLSQSTICRFESLTLSHNNMIALKPILQAWLEEAEGAQREKMNKP [K11M] :: -0.117
RELEAFAERFKQRRIKLGVTYADVGSALANLKIPGVGSLSQSTICRFESLTLSHNNMIALKPILQAWLEEAEGAQREKMNKP [Q21Y] :: -0.07
RELEAFAERDKQRRIKLGVTQADVGSALANLKIPGVGSLSQSTICRFESLTLSHNNMIALKPILQAWLEEAEGAQREKMNKP [F10D] :: -0.804
RELEAFAERFKQRRIKLGVTQADVGSALANLKIPGVGSLSQSTIDRFESLTLSHNNMIALKPILQAWLEEAEGAQREKMNKP [C45D] :: -0.139

Look up and report measured abundance fitness for this entry: RELEAFAERFKQRRIKLGVTQADVGSALANLKIPGVGSLSQSTICRFESLTLSHNNMIALKPILQAWLEEAEGAFREKMNKP [Q75F]
-0.043

Look up and report measured abundance fitness for this entry: RELEAFAERFKQRRIKLGVTQADVGSALANLKIPGVGSLSQSTICRFESLTLSHNNMIALKPILQAWLYEAEGAQREKMNKP [E69Y]
-0.171

Look up and report measured abundance fitness for this entry: RELEAFAERFKQRRIKLGVTQADVGSALANLKIPGVGSLSQSTITRFESLTLSHNNMIALKPILQAWLEEAEGAQREKMNKP [C45T]
0.11

Look up and report measured abundance fitness for this entry: RELEAFAERFKQRRIKLGVTQADVGSALANLKIPGVGSLSQSTICRFESLTLSHNNMIALKPILQPWLEEAEGAQREKMNKP [A66P]
-0.619

Look up and report measured abundance fitness for this entry: RELEAFAERFKQRRIKLGVTQADVGSCLANLKIPGVGSLSQSTICRFESLTLSHNNMIALKPILQAWLEEAEGAQREKMNKP [A27C]
0.01

Look up and report measured abundance fitness for this entry: REKEAFAERFKQRRIKLGVTQADVGSALANLKIPGVGSLSQSTICRFESLTLSHNNMIALKPILQAWLEEAEGAQREKMNKP [L3K]
-0.564

Look up and report measured abundance fitness for this entry: RELEAFAERFKQRRIKLGVTQADVGSALANLKIPGVGSLSQSTICRFESLTLSHNNMIALKPILQAWLEEAEGAQRIKMNKP [E77I]
-0.063

Look up and report measured abundance fitness for this entry: RELEAFAERFKQRRIKLGVTQADVGSALANLKIPGVGSLSQSTICRFESLTLSHNNMIALKPILQAWLEEAEGAQREKMNKY [P82Y]
0.095

Look up and report measured abundance fitness for this entry: RELWAFAERFKQRRIKLGVTQADVGSALANLKIPGVGSLSQSTICRFESLTLSHNNMIALKPILQAWLEEAEGAQREKMNKP [E4W]
-0.057

Look up and report measured abundance fitness for this entry: RELEAFAERFKQRRIKLGVTQADVGSALANLKIPGVGSLSQSTICRFESLTLSHNNMIALKPILQADLEEAEGAQREKMNKP [W67D]
-0.425

Look up and report measured abundance fitness for this entry: RELEAFAERFKQRRIKLGVTQADVGSALANLKIPGVGSLSQSTICRFESLTLMHNNMIALKPILQAWLEEAEGAQREKMNKP [S53M]
-0.419

Look up and report measured abundance fitness for this entry: RELEAFAERFKQRRIKLGVTQADVGSALANLKIPGVGSLSQSTICRFESLTLSHNNMIALKPILQAWLEEDEGAQREKMNKP [A71D]
-0.572

Look up and report measured abundance fitness for this entry: RELEAFAERFKQRRIKLGVTQADVGSALANLKIPGVHSLSQSTICRFESLTLSHNNMIALKPILQAWLEEAEGAQREKMNKP [G37H]
-0.05

Look up and report measured abundance fitness for this entry: RELEAFAERFKQRRIKLGVTQADVGSALANLKIPGVGSLSQSTICRFESLTLSHNNMIALKPILQAWLNEAEGAQREKMNKP [E69N]
-0.022

Look up and report measured abundance fitness for this entry: RELEPFAERFKQRRIKLGVTQADVGSALANLKIPGVGSLSQSTICRFESLTLSHNNMIALKPILQAWLEEAEGAQREKMNKP [A5P]
-0.451

Look up and report measured abundance fitness for this entry: RELEAFAERFKQRRIKLGVTQADVGSALANLKIPGVGSLSQSTICRFESLTLSHNNMIALKPILQMWLEEAEGAQREKMNKP [A66M]
-0.041

Look up and report measured abundance fitness for this entry: RELEAFAERFKQRRIKLGVTQADVGSALANLKIPGVGSLSQSTICRFESLTLSHNWMIALKPILQAWLEEAEGAQREKMNKP [N56W]
-0.062
